MEASUREMENT TARGET: Alpha-glucosidase MAL12 (Saccharomyces cerevisiae (strain ATCC 204508 / S288c), UniProt P53341)
Sequence (P53341 whole entry): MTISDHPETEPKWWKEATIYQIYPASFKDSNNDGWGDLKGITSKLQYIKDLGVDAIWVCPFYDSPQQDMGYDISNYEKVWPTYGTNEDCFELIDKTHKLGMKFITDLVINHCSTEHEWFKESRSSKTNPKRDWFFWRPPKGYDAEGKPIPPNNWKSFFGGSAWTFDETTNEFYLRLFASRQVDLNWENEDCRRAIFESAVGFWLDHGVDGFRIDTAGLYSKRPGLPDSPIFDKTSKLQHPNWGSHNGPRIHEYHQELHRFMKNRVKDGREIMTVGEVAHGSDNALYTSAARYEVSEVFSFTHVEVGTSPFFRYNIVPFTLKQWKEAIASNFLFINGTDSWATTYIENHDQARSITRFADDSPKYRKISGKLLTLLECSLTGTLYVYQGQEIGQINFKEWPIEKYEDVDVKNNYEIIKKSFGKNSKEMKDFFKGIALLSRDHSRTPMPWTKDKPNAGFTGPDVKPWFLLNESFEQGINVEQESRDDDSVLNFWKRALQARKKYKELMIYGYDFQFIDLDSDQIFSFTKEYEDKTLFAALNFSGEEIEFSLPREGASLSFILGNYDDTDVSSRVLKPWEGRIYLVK
MEASUREMENT DESCRIPTION: α-Glucosidase Inhibitory Activity
Entries annotated with measured IC50

// below: answered compounds
{"MOL SMILES": "COc1ccc(O)c(/C=N/NC(=O)c2cc3ccccc3[nH]2)c1", "RESULT": "49.2 µM"}
{"MOL SMILES": "O=C(N/N=C/c1cc(O)ccc1O)c1cc2ccccc2[nH]1", "RESULT": "144 µM"}

Could you now consider this next compound?
# input Tell me the measured IC50 of "O=C(N/N=C/c1cc(O)c(O)c(O)c1)c1cc2ccccc2[nH]1" , please.
# output 2.3 µM
